// data source = patent US10428111B2

System: SKBR3 (HER2-overexpressing cells)
Assay: MTT cytotoxicity study
Assay type: cell-based, human
Settings: Table 2A (420W); 6 hours incubation, then 48 hours; mean ± SD, n = 3; read-out: IC50 SKBR3 6 hours
readout: IC50 (µM)
Express your answer in µM, writing the number without its unit.

// query Tell me its IC50 given COc1cccc2c1C(=O)c1c(O)c3c(c(O)c1C2=O)C[C@@](O)(C(=O)CO)C[C@@H]3O[C@H]1C[C@H](N)[C@H](O)[C@H](C)O1 [DOX, doxorubicin] as the entry.
// result 0.39

----------
Test system: TUBO (HER2-overexpressing cells)
Assay: MTT cytotoxicity study
Type: cell-based, mice
Conditions: Table 2B (719W); 6 h incubation, then 48 hours; mean ± SD, n = 3; read-out: IC50 TUBO 6 h
readout: IC50 (nM)
Express your answer in nM, writing the number without its unit.

// query Tell me its IC50 given COc1cccc2c1C(=O)c1c(O)c3c(c(O)c1C2=O)C[C@@](O)(C(=O)CO)C[C@@H]3O[C@H]1C[C@H](N)[C@H](O)[C@H](C)O1 [DOX, doxorubicin] as the entry.
// result 90
